# Tested on: HepG2
# assay_explanation: Antiproliferative activity against human HepG2 cells
assay_metric: IC50 (µM)

>>> print(df.to_string())
                               query_smiles  measured_target  assay_metric  value_units  recorded_number
0  O=C(O)c1cc(O)c2c(c1)C(=O)c1cccc(O)c1C2=O            HepG2          IC50           µM              710

====

# Tested on: MCF7
# assay_explanation: Antiproliferative activity against human MCF7 cells
# Format: functional, cell-based
assay_metric: IC50 (µM)

>>> print(df.to_string())
                               query_smiles  assay_metric  value_units  recorded_number
0  O=C(O)c1cc(O)c2c(c1)C(=O)c1cccc(O)c1C2=O          IC50           µM              130

====

# System: Bel-7402
# assay_explanation: Antiproliferative activity against human Bel7402 cells after 24 to 72 hrs by MTT assay
# Assay type: functional, cell-based
pIC50: −log10 of the molar value.
assay_metric: pIC50

>>> print(df.to_string())
                               query_smiles  recorded_number
0  O=C(O)c1cc(O)c2c(c1)C(=O)c1cccc(O)c1C2=O             3.96

====

Listed next: entries and their corresponding solubility at 48 h.
# assay_explanation: Aqueous solubility of the compound in water after 48 hrs by UV spectrophotometer
# Type: physicochemical
assay_metric: solubility at 48 h (mg/mL)

>>> print(df.to_string())
                               query_smiles        assay_metric  value_units  recorded_number
0  Cl.O=C(OCCCCN1CCOCC1)c1cc(O)c2c(c1)C(=O)c1cccc(O)c1C2=O  solubility at 48 h        mg/mL             11.7
1  Cl.O=C(OCCCCN1CCCCC1)c1cc(O)c2c(c1)C(=O)c1cccc(O)c1C2=O  solubility at 48 h        mg/mL             10.7
2  Cl.O=C(OCCCCCN1CCCCC1)c1cc(O)c2c(c1)C(=O)c1cccc(O)c1C2=O  solubility at 48 h        mg/mL             10.3
3  CCN1CCN(CCCOC(=O)c2cc(O)c3c(c2)C(=O)c2cccc(O)c2C3=O)CC1.Cl.Cl  solubility at 48 h        mg/mL             10.1
4  Cl.Cl.O=C(OCCCN1CCN(CCO)CC1)c1cc(O)c2c(c1)C(=O)c1cccc(O)c1C2=O  solubility at 48 h        mg/mL             12.2
5  Cl.Cl.O=C(OCCCCCN1CCN(CCO)CC1)c1cc(O)c2c(c1)C(=O)c1cccc(O)c1C2=O  solubility at 48 h        mg/mL             12.2
6  Cl.O=C(OCCCCCCN1CCOCC1)c1cc(O)c2c(c1)C(=O)c1cccc(O)c1C2=O  solubility at 48 h        mg/mL             12.8
7  O=C(O)c1cc(O)c2c(c1)C(=O)c1cccc(O)c1C2=O  solubility at 48 h        mg/mL           0.0456
8  CCN(CC)CCCOC(=O)c1cc(O)c2c(c1)C(=O)c1cccc(O)c1C2=O.Cl  solubility at 48 h        mg/mL             13.6

====

# assay_explanation: Aqueous solubility of the compound in water after 48 hrs by UV spectrophotometer
# Type: physicochemical
assay_metric: solubility at 48 h (mg/mL)

>>> df
                               query_smiles  recorded_number
0  Cl.Cl.O=C(OCCCCN1CCN(CCO)CC1)c1cc(O)c2c(c1)C(=O)c1cccc(O)c1C2=O               12
1  CCN(CC)CCCCCCOC(=O)c1cc(O)c2c(c1)C(=O)c1cccc(O)c1C2=O.Cl             13.8
2  CN1CCN(CCCCCCOC(=O)c2cc(O)c3c(c2)C(=O)c2cccc(O)c2C3=O)CC1.Cl.Cl             12.9
3  CN1CCN(CCCOC(=O)c2cc(O)c3c(c2)C(=O)c2cccc(O)c2C3=O)CC1.Cl.Cl             13.3
4  Cl.O=C(OCCCN1CCOCC1)c1cc(O)c2c(c1)C(=O)c1cccc(O)c1C2=O             12.1
5  CCN1CCN(CCCCOC(=O)c2cc(O)c3c(c2)C(=O)c2cccc(O)c2C3=O)CC1.Cl.Cl             10.5
6  CCN(CC)CCCCOC(=O)c1cc(O)c2c(c1)C(=O)c1cccc(O)c1C2=O.Cl               13
7  Cl.O=C(OCCCN1CCCCC1)c1cc(O)c2c(c1)C(=O)c1cccc(O)c1C2=O             11.3
8  CN1CCN(CCCCCOC(=O)c2cc(O)c3c(c2)C(=O)c2cccc(O)c2C3=O)CC1.Cl.Cl             13.7

====

Listed next: entries and their corresponding solubility at 48 h.
# assay_explanation: Aqueous solubility of the compound in water after 48 hrs by UV spectrophotometer
# Type: physicochemical
assay_metric: solubility at 48 h

>>> df
                               query_smiles      result
0  CN1CCN(CCCCOC(=O)c2cc(O)c3c(c2)C(=O)c2cccc(O)c2C3=O)CC1.Cl.Cl  14.8 mg/mL
1  CCN1CCN(CCCCCOC(=O)c2cc(O)c3c(c2)C(=O)c2cccc(O)c2C3=O)CC1.Cl.Cl    10 mg/mL
2  Cl.O=C(OCCCCCN1CCOCC1)c1cc(O)c2c(c1)C(=O)c1cccc(O)c1C2=O  12.3 mg/mL
3  CCN1CCN(CCCCCCOC(=O)c2cc(O)c3c(c2)C(=O)c2cccc(O)c2C3=O)CC1.Cl.Cl  10.2 mg/mL
4  Cl.Cl.O=C(OCCCCCCN1CCN(CCO)CC1)c1cc(O)c2c(c1)C(=O)c1cccc(O)c1C2=O  15.1 mg/mL
5  CCN(CC)CCCCCOC(=O)c1cc(O)c2c(c1)C(=O)c1cccc(O)c1C2=O.Cl  12.4 mg/mL
6  Cl.O=C(OCCCCCCN1CCCCC1)c1cc(O)c2c(c1)C(=O)c1cccc(O)c1C2=O    11 mg/mL

====

# System: Bel-7402
# assay_explanation: Antiproliferative activity in human Bel7402 cells after 72 hrs by MTT assay
# Format: functional, cell-based
# experimental_conditions: Bel-7402, 72 h
pIC50: −log10 of the molar value.
Classification field: label 1 = pIC50 at or over 5; label 0 = pIC50 under 5.

                                   compound  classification
0  Cl.O=C(OCCCCCCN1CCCCC1)c1cc(O)c2c(c1)C(=O)c1cccc(O)c1C2=O         label 1
1  Cl.Cl.O=C(OCCCCCCN1CCN(CCO)CC1)c1cc(O)c2c(c1)C(=O)c1cccc(O)c1C2=O         label 1
2  CCN(CC)CCCCCCOC(=O)c1cc(O)c2c(c1)C(=O)c1cccc(O)c1C2=O.Cl         label 1
3  O=C(O)c1cc(O)c2c(c1)C(=O)c1cccc(O)c1C2=O [RHEIN]         label 0

FYI, the data here is from ChEMBL document CHEMBL3994562.
